normalized growth overview
- EXPERIMENTAL_PROTOCOL: chemical genetic growth profiling, strain panel (AID 1159580);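 further: tested at 20 µM; growth read once vehicle control cultures reached saturation at 30 °C; 1 = growth at the plate median or of vehicle wells; lower values mean less growth of the strain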
- PARTICULARS: S. cerevisiae deletion strains, growth OD, locus YDR001C, strain nth1, active compounds read low
Screen size: about 5,500 compounds; about 2,000 (36%) were called active. Another 18% or so got no clear call; they are omitted. The list shows a part of the results.
Provide a numeric answer; units are not to be included.

Use these answered entries as a reference point.
CO[C@@]1(NC(=O)Cc2cccs2)C(=O)N2C(C(=O)O)=C(COC(N)=O)CS[C@@H]21 :: 0.971
OCCN1CCN(CCCN2c3ccccc3Sc3ccc(C(F)(F)F)cc32)CC1 :: 0.989
CN(C)CCc1c[nH]c2ccc(C[C@H]3COC(=O)N3)cc12 :: 1.01
COc1cc(O)cc(OC)c1OC :: 0.972
COc1cc(/C=C/C(=O)N2CCC=CC2=O)cc(OC)c1OC :: 0.992

Reported normalized growth ( CN1CCN(CCC=C2c3ccccc3Sc3ccc(S(=O)(=O)N(C)C)cc32)CC1 ) = 1.01

Reported normalized growth ( O=c1c(O)c(-c2ccc(O)c(O)c2)oc2cc(O)ccc12 ) = 1

Reported normalized growth ( NC[C@H]1O[C@H](O[C@H]2[C@H](O)[C@@H](O[C@H]3O[C@H](CO)[C@@H](O)[C@H](N)[C@H]3O)[C@H](N)C[C@@H]2N)[C@H](N)C[C@@H]1O ) = 1.01

Reported normalized growth ( CC(=O)[C@@]1(O)CCC2C3CCC4=CC(=O)CC[C@]4(C)C3CC[C@@]21C (stereo not given in full) ) = 0.989

Reported normalized growth ( COc1cnc(NS(=O)(=O)c2ccc(N)cc2)nc1 ) = 0.997

Reported normalized growth ( C[C@]12CCC(=O)C=C1CCC1C2[C@@H](O)C[C@@]2(C)C1CC[C@]2(O)C(=O)COC(=O)CCC(=O)O (stereo not given in full) ) = 1.02

Reported normalized growth ( CN(C)CCc1c[nH]c2ccc(CS(=O)(=O)N3CCCC3)cc12 ) = 0.98

Reported normalized growth ( c1ccc([C@H]2CN3CCSC3=N2)cc1 ) = 0.995

Reported normalized growth ( O=C(CCc1ccc(O)cc1)c1c(O)cc(O)cc1O[C@@H]1O[C@H](CO)[C@@H](O)[C@H](O)[C@H]1O ) = 1.01

Reported normalized growth ( NC(N)=NC(N)=Nc1ccccc1 ) = 0.998

----------
normalized growth overview
- EXPERIMENTAL_PROTOCOL: chemical genetic growth profiling, strain panel (AID 1159580)
- PARTICULARS: S. cerevisiae deletion strains, growth OD, locus YKL085W, strain MDH1, active compounds read low
The campaign covered roughly 5,500 compounds. About 2,000 (36%) were called active. Another 18% or so got no clear call; they are omitted. Some of the results follow.
Provide a numeric answer; units are not to be included.

NC[C@H]1O[C@H](O[C@H]2[C@H](O)[C@@H](O[C@H]3O[C@H](CO)[C@@H](O)[C@H](N)[C@H]3O)[C@H](N)C[C@@H]2N)[C@H](N)C[C@@H]1O :: 1

Reported normalized growth ( COc1cc2c(cc1OC)-c1c(oc3c4c(ccc3c1=O)OC(C(C)C)C4)CO2 (stereo unspecified) ) = 0.973

Reported normalized growth ( O=C(CCBr)N1CCN(C(=O)CCBr)CC1 ) = 1.01

Reported normalized growth ( NC[C@H]1O[C@H](O[C@H]2C(O[C@@H]3O[C@H](CO)[C@@H](O)[C@H]3O)[C@@H](O)[C@H](N)C[C@@H]2N)[C@H](N)[C@@H](O)[C@@H]1O (stereo partly specified) ) = 1

Reported normalized growth ( CC(=O)Oc1cc2c(c(C)c1OC(C)=O)CC1OC13C2(C)CCC1(C)C2CC(C)(C(=O)O)CCC2(C)CCC13C (stereo unspecified) ) = 1

Reported normalized growth ( CC(=O)O[C@H]1CC[C@]2(C)C3CC[C@@]4(C)C(CC5O[C@@]6(CCC(C)CO6)[C@@H](C)C54)C3CC[C@H]2C1 (stereo partly specified) ) = 1.01

----------
normalized growth overview
- EXPERIMENTAL_PROTOCOL: chemical genetic growth profiling, strain panel (AID 1159580);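 further: tested at 20 µM; growth read once vehicle control cultures reached saturation at 30 °C; 1 = growth at the plate median or of vehicle wells; lower values mean less growth of the strain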
- PARTICULARS: S. cerevisiae deletion strains, growth OD, locus YPL055C, strain LGE1, active compounds read low
The whole screen tested about 5,500 compounds, of which about 2,000 (36%) were called active. Another 18% or so got no clear call; they are omitted. The list shows a part of the results.
Provide a numeric answer; units are not to be included.

Use these answered entries as a reference point.
COC(=O)C[C@H]1C(C)(C)[C@@H](O)[C@@H]2CC3=C4C=C(OC)O[C@@H](c5ccoc5)[C@]4(C)CCC3[C@@]1(C)C2=O (stereo partly specified) :: 1.03
CC(=O)C1C(=O)CC(c2ccc(Cl)cc2)CC1=O (stereo unspecified) :: 0.211
CO[C@H]1C[C@H](O[C@H]2[C@H](C)[C@@H](OC3O[C@H](C)C[C@H](N(C)C)[C@H]3OC(C)=O)[C@@H](C)C[C@]3(CO3)C(=O)[C@H](C)[C@@H](OC(C)=O)[C@@H](C)[C@@H](C)OC(=O)[C@@H]2C)O[C@@H](C)[C@@H]1OC(C)=O (stereo partly specified) :: 1.02
O=c1oc2c(O)c(O)cc3c(=O)oc4c(O)c(O)cc1c4c23 :: 0.624
C#C[C@]1(O)CCC2C3CCC4=Cc5oncc5C[C@]4(C)C3CC[C@@]21C (stereo partly specified) :: 0.75

Reported normalized growth ( N#Cc1sccc1Br ) = 1.02

Reported normalized growth ( CC(=O)OCC(=O)[C@@]1(O)CCC2C3CCC4=CC(=O)CC[C@]4(C)C3[C@@H](O)C[C@@]21C (stereo partly specified) ) = 1

----------
normalized growth overview
- EXPERIMENTAL_PROTOCOL: chemical genetic growth profiling, strain panel (AID 1159580);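 further: tested at 20 µM; growth read once vehicle control cultures reached saturation at 30 °C; 1 = growth at the plate median or of vehicle wells; lower values mean less growth of the strain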
- PARTICULARS: S. cerevisiae deletion strains, growth OD, locus YCL069W, strain vba3, active compounds read low
Out of some 5,500 compounds screened, about 2,000 (36%) were called active. Not shown: some 18% with an inconclusive outcome. The list shows a part of the results.
Provide a numeric answer; units are not to be included.

Use these answered entries as a reference point.
NC[C@H]1O[C@H](O[C@H]2[C@H](O)[C@@H](O[C@H]3O[C@H](CO)[C@@H](O)[C@H](N)[C@H]3O)[C@H](N)C[C@@H]2N)[C@H](N)C[C@@H]1O :: 1.01
CC(=O)NS(=O)(=O)c1ccc(NC(=O)c2ccccc2C(=O)O)cc1 :: 1.02
CN[C@@H]1[C@@H](O[C@H]2O[C@H](CO)[C@@H](N)[C@H](O)[C@H]2O)O[C@H]2C[C@@H](N)[C@H](O[C@H]3[C@H](O)[C@@H](O)[C@H](N)C[C@@H]3N)O[C@@H]2[C@@H]1O :: 1.02
CN(C)C(=N)N=C(N)N :: 1
COc1ccc(C2C(=O)c3ccccc3C2=O)cc1 :: 0.986

Reported normalized growth ( CC(=O)CC1CCCCN1 (stereo not drawn) ) = 1

Reported normalized growth ( CCOc1cccc(C(=O)c2ccc(O)c(O)c2O)c1 ) = 0.975

Reported normalized growth ( CN(C)CCc1c[nH]c2ccc(CS(=O)(=O)N3CCCC3)cc12 ) = 0.977

Reported normalized growth ( CC(=O)OCC1=C(C(=O)O)N2C(=O)[C@@H](NC(=O)CCCC(N)C(=O)O)C2SC1 (stereo partly drawn) ) = 0.997

Reported normalized growth ( CCN(CC)CCNC(=O)c1cc(Cl)c(N)cc1OC ) = 0.985

Reported normalized growth ( C=C(C)[C@@H]1CC[C@]2(CO)CC[C@]3(C)[C@H](CCC4[C@@]5(C)CC[C@H](O)C(C)(C)C5CC[C@]43C)C12 (stereo partly drawn) ) = 1.01

Reported normalized growth ( COc1c2c(cc3c1OCO3)C13C=C[C@H](OC)CC1N(C2)CC3O (stereo partly drawn) ) = 0.991

Reported normalized growth ( OCCN1CCN(CCCN2c3ccccc3Sc3ccc(C(F)(F)F)cc32)CC1 ) = 0.995

----------
normalized growth overview
- EXPERIMENTAL_PROTOCOL: chemical genetic growth profiling, strain panel (AID 1159580);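 further: tested at 20 µM; growth read once vehicle control cultures reached saturation at 30 °C; 1 = growth at the plate median or of vehicle wells; lower values mean less growth of the strain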
- PARTICULARS: S. cerevisiae deletion strains, growth OD, locus YHR087W, strain rtc3, active compounds read low
Among all 5,500 compounds or so, about 2,000 (36%) were called active. Another 18% or so got no clear call; they are omitted. The list shows a part of the results.

Use these answered entries as a reference point.
COC(=O)c1cc([N+](=O)[O-])ccc1N1CCOCC1 :: 1.02 (inactive)
Cc1ccc(=O)n(Cc2ccc(Cl)c(Cl)c2)n1 :: 1.01 (inactive)
CC(C)(C)c1cc(-c2cc(C(F)(F)F)[nH]n2)c2c(c1)C(C)(C)CC2 :: 0.989 (inactive)

Moving on to the next compound.
Reported normalized growth ( CC(C)(C)c1ccc(-c2cc(N)c(C(N)=O)s2)cc1 ) = 1.02 (inactive)
